# Tested On: human μ-opiate receptor (Homo sapiens)
# Construct: purchased NEN, Zaventem, Belgium RB-HOM; host or cells: CHO-K1 cells (membrane preparation)
# Assay Notes: μ-opiate receptor binding assay with [3H] naloxone (WGA-SPA beads)
# Protocol Conditions: 1 μmol/l test substance; 1 nmol/l [3H] naloxone; CHO-K1 cell membranes expressing human μ-opiate receptor

Compound | Endpoint Unit | inhibition at 1 µM
CN(CCN1CCC(c2ccccc2)(N(C)C)CC1)C(=O)c1c[nH]c2ccccc12 | % | 84
CN(CCN1CCC(c2ccccc2)(N(C)C)CC1)Cc1c(-c2ccccc2)[nH]c2ccccc12 | % | 96
CN(CCN1CCC(c2ccccc2)(N2CCCC2)CC1)C(=O)c1ccc2ccn(C)c2c1 | % | 47
CN(C)C1(c2ccccc2)CCN(C(=O)C2CCCN(C(=O)c3cc4cc(F)ccc4[nH]3)C2)CC1 (stereo not shown) | % | 89
CCCCC1(N(C)C)CCN(CCN(C)C(=O)Cc2c[nH]c3cc(F)ccc23)CC1 | % | 92
CN(C)C1(c2ccccc2)CCN(C(=O)C2CN(C(=O)c3cccc4c3ccn4C)c3ccccc32)CC1 (stereo not shown) | % | 90
CN(CCN1CCC(c2ccccc2)(N2CCCC2)CC1)C(=O)c1ccc2cc[nH]c2c1 | % | 15
CCCCC1(N(C)C)CCN(CCN(C)C(=O)CC(c2c[nH]c3ccccc23)C(C)C)CC1 (stereo not shown) | % | 94
CN(C)C1(c2ccccc2)CCN(C(=O)C2CCCN(C(=O)C3CCCc4c3[nH]c3ccc(Cl)cc43)C2)CC1 (stereo not shown) | % | 35
CN(C(=O)C1CCCc2c1[nH]c1ccc(Cl)cc21)C(C(=O)N1CCC(c2cccs2)(N(C)C)CC1)c1ccccc1 (stereo not shown) | % | 34
CN(CCN1CCC(c2ccccc2)(N2CCCC2)CC1)Cc1c[nH]c2ccc(Br)cc12 | % | 93
CN(CCN1CCC(c2ccccc2)(N(C)C)CC1)C(=O)Cc1c[nH]c2cc(F)ccc12 | % | 98
CCCCC1(N(C)C)CCN(CCN(C)C(=O)C2CCCc3c2[nH]c2ccc(Cl)cc32)CC1 (stereo not shown) | % | 54
CN(CCN1CCC(c2ccccc2)(N2CCCC2)CC1)Cc1ccc2[nH]ccc2c1 | % | 54
CN(C)C1(c2cccs2)CCN(CCNC(=O)Cc2c[nH]c3cc(F)ccc23)CC1 | % | 99
CN(C(=O)CCc1cn(C)c2ccccc12)C(C(=O)N1CCC(c2cccs2)(N(C)C)CC1)c1ccccc1 (stereo not shown) | % | 90

----------
# Tested On: human μ-opiate receptor (Homo sapiens, UniProt P35372)
# Construct: purchased NEN, Zaventem, Belgium RB-HOM; host or cells: CHO-K1 cells (membrane preparation)
# Sequence (P35372 whole entry): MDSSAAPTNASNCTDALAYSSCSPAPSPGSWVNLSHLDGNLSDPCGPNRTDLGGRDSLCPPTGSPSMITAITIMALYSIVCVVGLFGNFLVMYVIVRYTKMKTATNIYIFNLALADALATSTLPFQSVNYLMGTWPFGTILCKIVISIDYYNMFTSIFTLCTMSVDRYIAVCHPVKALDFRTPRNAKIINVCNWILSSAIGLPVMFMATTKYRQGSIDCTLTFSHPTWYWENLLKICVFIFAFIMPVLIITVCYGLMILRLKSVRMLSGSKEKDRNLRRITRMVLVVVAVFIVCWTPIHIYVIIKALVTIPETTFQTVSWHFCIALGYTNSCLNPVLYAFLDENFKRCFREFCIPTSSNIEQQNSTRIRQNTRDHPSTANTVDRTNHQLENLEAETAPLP
# Assay Notes: μ-opiate receptor binding assay with [3H] naloxone (WGA-SPA beads)
# Protocol Conditions: 1 μmol/l test substance; 1 nmol/l [3H] naloxone; CHO-K1 cell membranes expressing human μ-opiate receptor; 1 µM
% Inhibition (μ) at 1 μM: recorded values
Quantity Name: % Inhibition (μ) at 1 μM (%)

Compound | Quantity Name | Endpoint Unit | Assay Value
CC(C)C(CC(=O)N(C)CCN1CCC(c2ccccc2)(N(C)C)CC1)c1c[nH]c2ccccc12 (stereo not shown) [Example 87] | % Inhibition (μ) at 1 μM | % | 102
COc1ccc2c(c1)c(CN(C)CCN1CCC(c3ccccc3)(N(C)C)CC1)c(C)n2Cc1ccccc1 [Example 77] | % Inhibition (μ) at 1 μM | % | 89
CN(CCN1CCC(c2ccccc2)(N(C)C)CC1)Cc1c[nH]c2ccccc12 [Example 186] | % Inhibition (μ) at 1 μM | % | 102
CN(C)C1(c2cccs2)CCN(CCNCc2c[nH]c3ccc(Cl)cc23)CC1 [Example 72] | % Inhibition (μ) at 1 μM | % | 101
CC(C)C(CC(=O)NCCN1CCC(c2cccs2)(N(C)C)CC1)c1c[nH]c2ccccc12 (stereo not shown) [Example 6] | % Inhibition (μ) at 1 μM | % | 102
COc1ccc2[nH]cc(CN(C)CCN3CCC(c4ccccc4)(N(C)C)CC3)c2c1 [Example 191] | % Inhibition (μ) at 1 μM | % | 96
CN(CCN1CCC(c2ccccc2)(N(C)C)CC1)Cc1c[nH]c2ccc(Cl)cc12 [Example 182] | % Inhibition (μ) at 1 μM | % | 101
CN(CCN1CCC(c2ccccc2)(N(C)C)CC1)Cc1c[nH]c2ccc(Cl)cc12 [Example 183] | % Inhibition (μ) at 1 μM | % | 100
CN(CCN1CCC(c2ccccc2)(N(C)C)CC1)Cc1cccc2[nH]ccc12 [Example 195] | % Inhibition (μ) at 1 μM | % | 78
COc1ccc2[nH]cc(CN(C)CCN3CCC(c4ccccc4)(N(C)C)CC3)c2c1 [Example 75] | % Inhibition (μ) at 1 μM | % | 97
CN(CCN1CCC(c2ccccc2)(N(C)C)CC1)Cc1c[nH]c2ccccc12 [Example 187] | % Inhibition (μ) at 1 μM | % | 100
CN(CCN1CCC(c2ccccc2)(N(C)C)CC1)C(=O)C1CCCc2c1[nH]c1ccc(Cl)cc21 (stereo not shown) [Example 25] | % Inhibition (μ) at 1 μM | % | 86
CN(CCN1CCC(c2ccccc2)(N(C)C)CC1)Cc1ccc2cc[nH]c2c1 [Example 184] | % Inhibition (μ) at 1 μM | % | 99
Cc1c(CN(C)CCN2CCC(c3ccccc3)(N(C)C)CC2)c2ccccc2n1C [Example 79] | % Inhibition (μ) at 1 μM | % | 101
COc1ccc2[nH]cc(CN(C)CCN3CCC(c4ccccc4)(N(C)C)CC3)c2c1 [Example 192] | % Inhibition (μ) at 1 μM | % | 96
CN(CCN1CCC(c2ccccc2)(N(C)C)CC1)C(=O)c1ccc2cc[nH]c2c1 [Example 1] | % Inhibition (μ) at 1 μM | % | 94

----------
# Tested On: ORL1 receptor (Homo sapiens)
# Construct: expressed in transfected cells; host or cells: CHO (recombinant CHO-ORL1 cells), membranes
# Sequence (P41146 whole entry): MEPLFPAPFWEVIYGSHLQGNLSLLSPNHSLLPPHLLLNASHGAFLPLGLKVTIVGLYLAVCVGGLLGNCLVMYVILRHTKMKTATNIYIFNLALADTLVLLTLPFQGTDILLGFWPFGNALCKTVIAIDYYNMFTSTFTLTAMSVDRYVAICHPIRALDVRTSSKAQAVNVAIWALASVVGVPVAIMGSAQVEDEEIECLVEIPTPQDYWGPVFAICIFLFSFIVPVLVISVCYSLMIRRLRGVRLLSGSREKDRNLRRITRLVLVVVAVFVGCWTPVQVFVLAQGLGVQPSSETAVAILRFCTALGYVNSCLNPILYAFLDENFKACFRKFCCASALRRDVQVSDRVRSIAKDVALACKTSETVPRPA
# Assay Notes: ORL1 receptor binding assay with 3H-nociceptin/orphanin FQ (WGA-SPA beads)
# Protocol Conditions: c=1 μM test substance; 0.5 nM 3H-nociceptin/orphanin FQ; membranes of recombinant CHO-ORL1 cells
Where inhibition at 1 µM equals or exceeds 70%, the correct label is Satisfied; where it does not, the label is Not satisfied.

Molecule | Group
CCCCC1(N(C)C)CCN(CCN(C)C(=O)c2cccc3c2ccn3C)CC1 [Example 41] | Not satisfied
CCCCC1(N(C)C)CCN(CCN(C)C(=O)CC(C)c2c[nH]c3ccccc23)CC1 (stereo not shown) [Example 58] | Not satisfied
CC(C)C(C(=O)N1CCC(c2ccccc2)(N(C)C)CC1)N(C)C(=O)CCc1c[nH]c2ccccc12 (stereo not shown) [Example 94] | Satisfied
CN(CCN1CCC(c2ccccc2)(N(C)C)CC1)C(=O)c1c[nH]c2ccccc12 [Example 12] | Not satisfied
CN(CCN1CCC(c2ccccc2)(N2CCCC2)CC1)Cc1ccc2cc[nH]c2c1 [Example 143] | Not satisfied
CN(C)C1(c2ccccc2)CCN(C(=O)C2CCCN(C(=O)c3ccc4cc[nH]c4c3)C2)CC1 (stereo not shown) [Example 125] | Not satisfied
CC(C)C(C(=O)N1CCC(c2ccccc2)(N(C)C)CC1)N(C)C(=O)Cc1c[nH]c2ccc(Br)cc12 (stereo not shown) [Example 83] | Satisfied

----------
Parameter inhibition at 1 µM: see the listing below.
# Tested On: human μ-opiate receptor (Homo sapiens, UniProt P35372)
# Construct: purchased NEN, Zaventem, Belgium RB-HOM; host or cells: CHO-K1 cells (membrane preparation)
# Assay Notes: μ-opiate receptor binding assay with [3H] naloxone (WGA-SPA beads)
# Protocol Conditions: 1 μmol/l test substance; 1 nmol/l [3H] naloxone; CHO-K1 cell membranes expressing human μ-opiate receptor
Quantity Name: inhibition at 1 µM (%)

Compound | Quantity Name | Endpoint Unit | Assay Value
CN(CCCN1CCC(c2ccccc2)(N(C)C)CC1)C(=O)Cc1c[nH]c2ccc(Br)cc12 | inhibition at 1 µM | % | 81
CN(C)C1(c2ccccc2)CCN(C(=O)C2CCCN(C(=O)Cc3c[nH]c4cc(F)ccc34)C2)CC1 (centres unmarked) | inhibition at 1 µM | % | 64
CC(C)C(CC(=O)N(C)CCN1CCC(c2ccccc2)(N2CCCC2)CC1)c1c[nH]c2ccccc12 (centres unmarked) | inhibition at 1 µM | % | 61
CC(C)c1ccc2c(CN(C)CCCN3CCC(c4cccs4)(N(C)C)CC3)c[nH]c2c1 | inhibition at 1 µM | % | 93
CN(CCCN1CCC(c2cccs2)(N(C)C)CC1)C(=O)c1cccc2c1ccn2C | inhibition at 1 µM | % | 78
CN(CCN1CCC(c2ccccc2)(N2CCCC2)CC1)C(=O)C1CCCc2c1[nH]c1ccc(Cl)cc21 (centres unmarked) | inhibition at 1 µM | % | 28
CN(CCN1CCC(c2ccccc2)(N(C)C)CC1)C(=O)CCc1c[nH]c2ccccc12 | inhibition at 1 µM | % | 93
CN(C)C1(c2ccccc2)CCN(C(=O)C2CCCN(Cc3ccc4cc[nH]c4c3)C2)CC1 (centres unmarked) | inhibition at 1 µM | % | 93
Cc1c(CNCCN2CCC(c3cccs3)(N(C)C)CC2)c2ccccc2n1C | inhibition at 1 µM | % | 101
CN(C)C1(c2ccccc2)CCN(C(=O)CCNC(=O)CCc2c[nH]c3ccccc23)CC1 | inhibition at 1 µM | % | 85
CCCCC1(N(C)C)CCN(CCN(C)C(=O)c2ccc3ccn(C)c3c2)CC1 | inhibition at 1 µM | % | 68
CCCCC1(N(C)C)CCN(CCN(C)C(=O)c2cccc3c2ccn3C)CC1 | inhibition at 1 µM | % | 63
CN(C)C1(c2cccs2)CCN(C(=O)CC(NC(=O)c2ccc3cc[nH]c3c2)c2ccccc2)CC1 (centres unmarked) | inhibition at 1 µM | % | 96
CN(C)C1(c2cccs2)CCN(CCNCc2ccc3[nH]ccc3c2)CC1 | inhibition at 1 µM | % | 96
CCCCC1(N(C)C)CCN(CCN(C)C(=O)CC(C)c2c[nH]c3ccccc23)CC1 (centres unmarked) | inhibition at 1 µM | % | 77
CN(C(=O)c1ccc2cc[nH]c2c1)C(C(=O)N1CCC(c2cccs2)(N(C)C)CC1)c1ccccc1 (centres unmarked) | inhibition at 1 µM | % | 66
CN(C)C1(c2ccccc2)CCN(C(=O)C2CCCN(Cc3cccc4cc[nH]c34)C2)CC1 (centres unmarked) | inhibition at 1 µM | % | 93
CN(C)C1(c2ccccc2)CCN(C(=O)C2CN(C(=O)Cc3c[nH]c4cc(F)ccc34)c3ccccc32)CC1 (centres unmarked) | inhibition at 1 µM | % | 88
CN(CCN1CCC(c2ccccc2)(N(C)C)CC1)Cc1ccc2[nH]ccc2c1 | inhibition at 1 µM | % | 93
CN(C)C1(c2cccs2)CCN(CCNC(=O)C2CCCc3c2[nH]c2ccc(Cl)cc32)CC1 (centres unmarked) | inhibition at 1 µM | % | 95
CN(C)C1(c2ccccc2)CCN(C(=O)C2CCCN(Cc3c(-c4ccc(F)cc4)[nH]c4ccccc34)C2)CC1 (centres unmarked) | inhibition at 1 µM | % | 94
CN(CCCN1CCC(c2ccccc2)(N(C)C)CC1)C(=O)c1cc2cc(F)ccc2[nH]1 | inhibition at 1 µM | % | 90
CCCCC1(N(C)C)CCN(CCN(C)Cc2c[nH]c3ccc(Br)cc23)CC1 | inhibition at 1 µM | % | 94
CCCCC1(N(C)C)CCN(CCN(C)C(=O)CCc2c[nH]c3ccccc23)CC1 | inhibition at 1 µM | % | 81
CN(C)C1(c2ccccc2)CCN(C(=O)C2CCCN(Cc3cccc4[nH]ccc34)C2)CC1 (centres unmarked) | inhibition at 1 µM | % | 66
CC(C)c1ccc2c(CNCCN3CCC(c4cccs4)(N(C)C)CC3)c[nH]c2c1 | inhibition at 1 µM | % | 99
CN(C)C1(c2ccccc2)CCN(C(=O)CCNC(=O)c2cccc3c2ccn3C)CC1 | inhibition at 1 µM | % | 88
CN(C)C1(c2ccccc2)CCN(C(=O)C2CCCN(C(=O)Cc3c[nH]c4ccc(Br)cc34)C2)CC1 (centres unmarked) | inhibition at 1 µM | % | 72
CN(C)C1(c2ccccc2)CCN(C(=O)C2CCCN(C(=O)CCc3c[nH]c4ccccc34)C2)CC1 (centres unmarked) | inhibition at 1 µM | % | 72
CC(C)C(CC(=O)NC(CC(=O)N1CCC(c2cccs2)(N(C)C)CC1)c1ccccc1)c1c[nH]c2ccccc12 (centres unmarked) | inhibition at 1 µM | % | 101
CN(C)C1(c2cccs2)CCN(C(=O)CC(NC(=O)c2cccc3c2ccn3C)c2ccccc2)CC1 (centres unmarked) | inhibition at 1 µM | % | 98
CN(C)C1(c2cccs2)CCN(C(=O)CC(NC(=O)Cc2c[nH]c3cc(F)ccc23)c2ccccc2)CC1 (centres unmarked) | inhibition at 1 µM | % | 97
